# credit: patent US20180244611A1

Recorded Emax by entry
molecular target: F508delCFTR (Homo sapiens, UniProt P13569, DEL508-508); construct: expressed in transfected cells; host or cells: CFBE41o- human lung-derived epithelial cells (CFBE41o-F508delCFTR-HRP), doxycycline-inducible; assay: Cell Surface Expression-Horse Radish Peroxidase (CSE-HRP) assay, test compound without co-corrector; format: cell-based; details: maximum at any tested concentration, normalized to positive control, without co-corrector;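 as to Emax: percent of on-plate 2 µM positive control corrector response over DMSO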
Sequence (P13569 with tags, fused parts or gaps DEL508-508): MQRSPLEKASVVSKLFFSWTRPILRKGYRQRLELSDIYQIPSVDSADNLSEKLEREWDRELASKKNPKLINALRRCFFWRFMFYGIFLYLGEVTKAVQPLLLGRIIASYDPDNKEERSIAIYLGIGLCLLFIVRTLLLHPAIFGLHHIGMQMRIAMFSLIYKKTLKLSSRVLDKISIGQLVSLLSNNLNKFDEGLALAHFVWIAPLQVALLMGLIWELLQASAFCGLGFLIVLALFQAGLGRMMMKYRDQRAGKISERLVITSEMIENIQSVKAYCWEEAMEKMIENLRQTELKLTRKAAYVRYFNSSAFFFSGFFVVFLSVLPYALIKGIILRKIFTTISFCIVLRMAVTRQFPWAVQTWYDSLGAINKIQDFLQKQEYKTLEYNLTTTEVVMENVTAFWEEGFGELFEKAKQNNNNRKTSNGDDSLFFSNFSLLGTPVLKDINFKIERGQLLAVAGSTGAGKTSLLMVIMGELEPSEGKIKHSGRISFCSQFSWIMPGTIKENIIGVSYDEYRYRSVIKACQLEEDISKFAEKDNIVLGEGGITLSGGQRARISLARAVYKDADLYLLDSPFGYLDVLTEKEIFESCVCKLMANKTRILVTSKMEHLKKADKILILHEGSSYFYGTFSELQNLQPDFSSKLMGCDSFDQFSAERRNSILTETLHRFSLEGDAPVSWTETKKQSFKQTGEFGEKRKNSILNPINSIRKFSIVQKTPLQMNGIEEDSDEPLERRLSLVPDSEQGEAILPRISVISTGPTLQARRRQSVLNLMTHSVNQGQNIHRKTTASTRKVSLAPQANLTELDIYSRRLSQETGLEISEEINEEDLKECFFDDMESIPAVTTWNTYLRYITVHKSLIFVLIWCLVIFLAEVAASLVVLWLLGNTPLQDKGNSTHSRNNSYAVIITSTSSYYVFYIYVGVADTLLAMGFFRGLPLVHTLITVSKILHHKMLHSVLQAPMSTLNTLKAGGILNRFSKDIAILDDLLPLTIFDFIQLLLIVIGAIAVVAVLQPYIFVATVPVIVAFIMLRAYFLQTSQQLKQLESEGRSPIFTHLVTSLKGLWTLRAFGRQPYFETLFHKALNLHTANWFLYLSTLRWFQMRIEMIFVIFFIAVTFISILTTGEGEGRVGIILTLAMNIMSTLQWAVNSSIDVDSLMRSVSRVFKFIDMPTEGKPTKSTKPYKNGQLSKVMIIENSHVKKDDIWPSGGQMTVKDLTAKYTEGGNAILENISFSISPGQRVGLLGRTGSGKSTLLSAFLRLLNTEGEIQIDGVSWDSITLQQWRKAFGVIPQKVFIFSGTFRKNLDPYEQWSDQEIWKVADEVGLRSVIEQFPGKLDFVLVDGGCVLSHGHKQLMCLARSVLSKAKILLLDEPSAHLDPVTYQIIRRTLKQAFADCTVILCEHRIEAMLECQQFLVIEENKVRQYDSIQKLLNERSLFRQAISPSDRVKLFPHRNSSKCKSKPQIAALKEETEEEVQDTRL
observable: Emax

COc1ccccc1S(=O)(=O)NC(=O)C1CCc2c(Cl)cccc21 (centres unmarked) : < 50%
COc1cccc2c1CCC2C(=O)NS(=O)(=O)c1c(CO)c(C)nn1C (centres unmarked) : < 50%
Cc1ccccc1S(=O)(=O)NC(=O)C1CCc2ccccc21 (centres unmarked) : < 50%
COc1cccc2c1CCC2C(=O)NS(=O)(=O)c1ccc(NCCC(C)(C)O)c([N+](=O)[O-])c1 (centres unmarked) : < 50%
COc1ccc(Br)c2c1[C@@H](C(=O)NS(=O)(=O)c1cccc3ncccc13)CCC2 (single isomer, unassigned) : ≥ 150%
CCC1(C(=O)NS(=O)(=O)c2cccc3c(C4CCC4)cccc23)CCc2c(C3CCC3)cccc21 (centres unmarked) : 50 to 150%
CCC1(C(=O)NS(=O)(=O)c2cccc3ccccc23)CCCc2cccc(Cl)c21 (centres unmarked) : ≥ 150%
COc1ccc(C2CCC2)c2c1[C@H](C(=O)NS(=O)(=O)c1cccc3ncccc13)CC2 : ≥ 150%
CCC1(C(=O)NS(=O)(=O)c2cccc3c2CCCC3)CCc2c(Cl)cccc21 (centres unmarked) : 50 to 150%
O=C(NS(=O)(=O)c1cccc2ccccc12)C1(CCn2cccn2)CCc2c(Cl)cccc21 (centres unmarked) : 50 to 150%
CC1(C(=O)NS(=O)(=O)Cc2ccccc2)CCc2c(Cl)cccc21 (centres unmarked) : < 50%
COc1ccc(C2CCC2)c2c1[C@H](C(=O)NS(=O)(=O)c1cccc3c1CCCN3)C2 : ≥ 150%
COc1ccc(Br)c2c1C(C(=O)NS(=O)(=O)c1cccc3ccccc13)C2 (centres unmarked) : ≥ 150%
Cc1ccccc1S(=O)(=O)NC(=O)[C@H]1CCc2c(Cl)cccc21 (single isomer, unassigned) : 50 to 150%
CC[C@]1(C(=O)NS(=O)(=O)c2cccc3ccccc23)CCCc2cccc(Cl)c21 : ≥ 150%
COc1ccc(Cl)c2c1[C@@H](C(=O)NS(=O)(=O)c1cccc3ccccc13)CC2 : 50 to 150%
COc1cccc2c1CCC2C(=O)NS(=O)(=O)c1cc(C)ccc1Cl (centres unmarked) : < 50%

---

Recorded pEC50 by entry
target: F508delCFTR (Homo sapiens, UniProt P13569, DEL508-508); construct: expressed in transfected cells; host or cells: CFBE41o- human lung-derived epithelial cells (CFBE41o-F508delCFTR-HRP), doxycycline-inducible; assay: Cell Surface Expression-Horse Radish Peroxidase (CSE-HRP) assay, test compound with co-corrector; type: cell-based; details: with 2 μM co-corrector
pEC50: −log10 of the molar value.
observable: pEC50

COc1ccc(-c2cccc(OC(F)(F)F)c2)c2c1C(C(=O)NS(=O)(=O)c1cccc3ccccc13)CCC2 (centres unmarked) : 5.00 to 5.52
COc1ccc(C2=CCOCC2)c2c1C(C(=O)NS(=O)(=O)c1cccc3ccccc13)CCC2 (centres unmarked) : > 5.52
O=C(NS(=O)(=O)c1cccc2ccccc12)C1CCCc2c(O)ccc(Br)c21 (centres unmarked) : 5.00 to 5.52
O=C(NS(=O)(=O)c1cccc2ccccc12)C1CCCc2c1ccc1c2OCO1 (centres unmarked) : > 5.52
COc1cccc2c1CCC2C(=O)NS(=O)(=O)c1ccc(Cl)cc1[N+](=O)[O-] (centres unmarked) : > 5.52
COc1cccc2c1CCC2C(=O)NS(=O)(=O)c1ccc(Cl)cc1Cl (centres unmarked) : ≤ 5.00
COc1ccc(C2CCC2)c2c1[C@@H](C(=O)NS(=O)(=O)c1cccc3ccccc13)C2 (single isomer, unassigned) : > 5.52
Cc1ccccc1S(=O)(=O)NC(=O)C1(C)CCc2c1ccc(F)c2F (centres unmarked) : 5.00 to 5.52

---

target: F508delCFTR (Homo sapiens, UniProt P13569, DEL508-508); construct: expressed in transfected cells; host or cells: CFBE41o- human lung-derived epithelial cells (CFBE41o-F508delCFTR-HRP), doxycycline-inducible; test: Cell Surface Expression-Horse Radish Peroxidase (CSE-HRP) assay, test compound without co-corrector; assay type: cell-based; conditions: test compound without co-corrector
pEC50: −log10 of the molar value.
observable: pEC50

COc1ccc(Br)c2c1CC[C@H]2C(=O)NS(=O)(=O)c1cccc2ccccc12 : 5.00 to 5.52
COc1cccc2c1CCC2C(=O)NS(=O)(=O)c1ccc(C)cc1 (stereo not drawn) : 5.00 to 5.52
CCC1(C(=O)NS(=O)(=O)c2cccc3c2OCCO3)CCc2c(Cl)cccc21 (stereo not drawn) : ≤ 5.00
COc1cccc2c1CCCC2C(=O)NS(=O)(=O)c1cccc2ccccc12 (stereo not drawn) : 5.00 to 5.52
COc1ncc(Cl)c2c1C(C(=O)NS(=O)(=O)c1cccc3ccccc13)CC2 (stereo not drawn) : 5.00 to 5.52
CCC1(C(=O)NS(=O)(=O)c2ccc3ccccc3c2)CCc2c(Cl)cccc21 (stereo not drawn) : 5.00 to 5.52
COc1cccc2c1CCC2C(=O)NS(=O)(=O)c1ccc(Cl)c([N+](=O)[O-])c1 (stereo not drawn) : ≤ 5.00
COc1cc2c(cc1OC)C(C(=O)NS(=O)(=O)c1cccc3ccccc13)CCC2 (stereo not drawn) : 5.00 to 5.52
COc1ccc(C2CCC2)c2c1CCC[C@H]2C(=O)NS(=O)(=O)c1cccc2ccccc12 : > 5.52

---

molecular target: F508delCFTR (Homo sapiens, UniProt P13569, DEL508-508); construct: expressed in transfected cells; host or cells: CFBE41o- human lung-derived epithelial cells (CFBE41o-F508delCFTR-HRP), doxycycline-inducible; experiment: Cell Surface Expression-Horse Radish Peroxidase (CSE-HRP) assay, test compound with co-corrector; assay type: cell-based; conditions: with 2 μM co-corrector
Recorded EC50 by entry
observable: EC50

CC1(C(=O)NS(=O)(=O)c2ccccc2)CCc2c(Cl)cccc21 (centres unmarked) : 3 to 10 µM
COc1cccc2c1CC[C@]2(C)C(=O)NS(=O)(=O)c1cccc2ccccc12 : 3 to 10 µM
CCc1ccccc1S(=O)(=O)NC(=O)C1CCc2c(Cl)cccc21 (centres unmarked) : 3 to 10 µM
COc1cccc2c1CCC2C(=O)NS(=O)(=O)c1cccc(F)c1C#N (centres unmarked) : 3 to 10 µM
CCC1(C(=O)NS(=O)(=O)c2ccccc2OC(F)(F)F)CCc2c(Cl)cccc21 (centres unmarked) : ≥ 10 µM

---

Biological target: F508delCFTR (Homo sapiens, UniProt P13569, DEL508-508)
Construct: expressed in transfected cells; host or cells: CFBE41o- human lung-derived epithelial cells (CFBE41o-F508delCFTR-HRP), doxycycline-inducible
Experiment: Cell Surface Expression-Horse Radish Peroxidase (CSE-HRP) assay, test compound with co-corrector
Assay type: cell-based
Conditions: with 2 μM co-corrector
Protocol: Cell Surface Expression-Horse Radish Peroxidase (CSE-HRP) Assay […] The % activity measured at each of the 8 test concentrations of the test compound added either without or with a co-corrector (2 μM of 3-[(2R,4R)-4-({[1-(2,2-difluoro-1,3-benzodioxol-5-yl)cyclopropyl]carbonyl}amino)-7-methoxy-3,4-dihydro-2H-chromen-2-yl]benzoic acid) was normalized to the on-plate positive control using the following formulae: […]
observable: EC50

COc1ccc(C2CCC2)c2c1C(C(=O)NS(=O)(=O)c1cccc3ccccc13)C2 (stereo not drawn) : < 3 µM
O=C(NS(=O)(=O)c1cccc2ccccc12)C1CCCc2c1ccc1c2OCCO1 (stereo not drawn) : 3 to 10 µM
COc1cccc2c1CCC2C(=O)NS(=O)(=O)c1cc(C(=O)Nc2c(C)cccc2C)c(O)cc1Cl (stereo not drawn) : ≥ 10 µM
COc1ncc(C2CCC2)c2c1[C@H](C(=O)NS(=O)(=O)c1cccc3ccccc13)CCC2 : < 3 µM
COc1cccc2c1C(C(=O)NS(=O)(=O)c1cccc3ccccc13)CCC2 (stereo not drawn) : < 3 µM
Cc1ccccc1S(=O)(=O)NC(=O)C1CCc2c(-c3ccc(N4CCN(C)CC4)nc3)cccc21 (stereo not drawn) : ≥ 10 µM
COc1ccc(-c2cccc3c2CCC3C(=O)NS(=O)(=O)c2ccccc2C)cn1 (stereo not drawn) : 3 to 10 µM
COc1cccc2c1CCC2C(=O)NS(=O)(=O)c1cccc(C#N)c1 (stereo not drawn) : ≥ 10 µM
COc1ccc(Br)c2c1CCCC2C(=O)NS(=O)(=O)c1cccc2ncccc12 (stereo not drawn) : < 3 µM
COc1ccc(C2CCC2)c2c1C(C(=O)NS(=O)(=O)c1cccc3c1NCCC3)CC2 (stereo not drawn) : 3 to 10 µM
COc1ccc(-c2ccc(C(F)(F)F)nc2)c2c1CCCC2C(=O)NS(=O)(=O)c1cccc2ccccc12 (stereo not drawn) : < 3 µM
O=C(NS(=O)(=O)c1cccc2ccccc12)C1CCCc2c(Cl)ccc(O)c21 (stereo not drawn) : 3 to 10 µM
COc1ccc(Br)c2c1C(C(=O)NS(=O)(=O)c1cccc3ccccc13)C2 (stereo not drawn) : < 3 µM
COc1cccc2c1CC[C@@]2(C)C(=O)NS(=O)(=O)c1cccc2ccccc12 : 3 to 10 µM
O=C(NS(=O)(=O)c1cccc2ccccc12)C1(CC2CC2)CCc2c(Cl)cccc21 (stereo not drawn) : < 3 µM
COc1cccc2c1CCC2C(=O)NS(=O)(=O)c1ccccc1Cl (stereo not drawn) : 3 to 10 µM
COc1ccc(/C=C/c2ccccc2)c2c1C(C(=O)NS(=O)(=O)c1cccc3ccccc13)CCC2 (stereo not drawn) : 3 to 10 µM
COCCn1cc(S(=O)(=O)NC(=O)C2CCc3c(OC)cccc32)cn1 (stereo not drawn) : ≥ 10 µM
COc1ccc(Br)c2c1CC[C@@H]2C(=O)NS(=O)(=O)c1cccc2ccccc12 : 3 to 10 µM
COc1ccc(Br)c2c1C(C(=O)NS(=O)(=O)c1cccc3ncccc13)CCC2 (stereo not drawn) : < 3 µM
COc1ccc(C(F)(F)F)c2c1[C@H](C(=O)NS(=O)(=O)c1cccc3nc(C)ccc13)CC2 : < 3 µM
COc1cc2c(cc1OC)C(C(=O)NS(=O)(=O)c1cccc3ccccc13)CCC2 (stereo not drawn) : 3 to 10 µM
COc1ccc(N2CCCC2)c2c1C(C(=O)NS(=O)(=O)c1cccc3ccccc13)CCC2 (stereo not drawn) : < 3 µM
COc1ccc(C2CCC2)c2c1[C@@H](C(=O)NS(=O)(=O)c1cccc3cnn(C)c13)CC2 (single isomer, unassigned) : < 3 µM
COc1ccc(C2CCC2)c2c1[C@H](C(=O)NS(=O)(=O)c1cccc3ncccc13)C2 (single isomer, unassigned) : < 3 µM
O=C(NS(=O)(=O)c1cccc2ccccc12)[C@@H]1CCCc2cccc(Cl)c21 : < 3 µM
CCC1(C(=O)NS(=O)(=O)c2cccc(F)c2C)CCc2c(Cl)cccc21 (stereo not drawn) : < 3 µM
COc1cccc2c1CCC2C(=O)NS(=O)(=O)c1cc(F)ccc1Cl (stereo not drawn) : ≥ 10 µM
COc1cc2c(c(OC)c1)C(C(=O)NS(=O)(=O)c1cccc3ccccc13)CCC2 (stereo not drawn) : < 3 µM
COc1ccc(C2CCC2)c2c1C(C(=O)NS(=O)(=O)c1cccc3ncccc13)C2 (stereo not drawn) : < 3 µM
COc1ccc(Br)c2c1C(C(=O)NS(=O)(=O)c1cccc3ccccc13)CCC2 (stereo not drawn) : < 3 µM
O=C(NS(=O)(=O)c1cccc2ccccc12)C1(CC2CCOC2)CCc2c(Cl)cccc21 (stereo not drawn) : < 3 µM
COc1cccc2c1CCC2C(=O)NS(=O)(=O)c1cc(F)ccc1F (stereo not drawn) : ≥ 10 µM
